Experiment: Solubility test at various pH
Format: physicochemical
Conditions: phosphate buffer / phosphoric acid solution, aqueous buffer, thermodynamic from solid; solution pH 2.0, 25°C
measured.endpoint: solubility at 1.5 h (µg/mL)
Express it in µg/mL; write the number only.

Entry CC(C)(C)C(=O)OCOP(=O)(COC1(Cn2cnc3cnc(N)nc32)CC1)OCOC(=O)C(C)(C)C.O=C(O)/C=C\C(=O)O [Example] has what solubility at 1.5 h? 5600

---

Assay: Solubility test at various pH
Type: physicochemical
Settings: phosphate buffer / phosphoric acid solution, 25 °C, aqueous buffer, thermodynamic from solid; pH range of 2 to 6.5
measured.endpoint: solubility at 1.5 h

Entry "CC(C)(C)C(=O)OCOP(=O)(COC1(Cn2cnc3cnc(N)nc32)CC1)OCOC(=O)C(C)(C)C.O=C(O)/C=C\C(=O)O" has what solubility at 1.5 h? 3000 to 7000 µg/mL

---

Assay: Solubility test at various pH
Assay type: physicochemical
Conditions: phosphate buffer / phosphoric acid solution, aqueous buffer, thermodynamic from solid; solution pH 3.2, 25°C
measured.endpoint: solubility at 1.5 h (µg/mL)
Express it in µg/mL; write the number only.

Entry CC(C)(C)C(=O)OCOP(=O)(COC1(Cn2cnc3cnc(N)nc32)CC1)OCOC(=O)C(C)(C)C.O=C(O)/C=C\C(=O)O [Example] has what solubility at 1.5 h? 7000

---

Experiment: Stability under heat and moisture, 40°C/75% RH (residual content by HPLC)
Format: physicochemical
Conditions: Week 4
measured.endpoint: residual content (%)
Express it in %; write the number only.

Entry "CC(C)(C)C(=O)OCOP(=O)(COC1(Cn2cnc3cnc(N)nc32)CC1)OCOC(=O)C(C)(C)C.O=C(O)/C=C\C(=O)O.O=C(O)/C=C\C(=O)O.O=C(O)/C=C\C(=O)O" has what residual content? 0.0

Entry "CC(C)(C)C(=O)OCOP(=O)(COC1(Cn2cnc3cnc(N)nc32)CC1)OCOC(=O)C(C)(C)C.CS(=O)(=O)O" has what residual content? 0.0

Entry "CC(C)(C)C(=O)OCOP(=O)(COC1(Cn2cnc3cnc(N)nc32)CC1)OCOC(=O)C(C)(C)C.Cc1ccc(S(=O)(=O)O)cc1" has what residual content? 71.0

Entry "CC(C)(C)C(=O)OCOP(=O)(COC1(Cn2cnc3cnc(N)nc32)CC1)OCOC(=O)C(C)(C)C.O=C(O)/C=C\C(=O)O" has what residual content? 99.3

Entry "CC(C)(C)C(=O)OCOP(=O)(COC1(Cn2cnc3cnc(N)nc32)CC1)OCOC(=O)C(C)(C)C" has what residual content? 91.3

Entry "CC(C)(C)C(=O)OCOP(=O)(COC1(Cn2cnc3cnc(N)nc32)CC1)OCOC(=O)C(C)(C)C.Cc1ccc(S(=O)(=O)O)cc1.Cc1ccc(S(=O)(=O)O)cc1" has what residual content? 0.0

---

Tested on: hepatitis B virus
Assay: In vitro anti-HBV activity, HBV DNA by real-time PCR in HepG2.2.15 culture medium
Format: cell-based
Conditions: Hepatitis B virus, HepG2.2.15, read-out: activity (in vitro, summary in text)
measured.endpoint: EC50

Entry "CC(C)(C)C(=O)OCOP(=O)(COC1(Cn2cnc3cnc(N)nc32)CC1)OCOC(=O)C(C)(C)C.O=C(O)/C=C\C(=O)O" has what EC50? ~1000 nM

---

Test: Cytotoxicity determination (MTT)
Details: human
measured.endpoint: CC50 at 8 days (µM)
Express it in µM; write the number only.

Entry CC(C)(C)C(=O)OCOP(=O)(COC1(Cn2cnc3cnc(N)nc32)CC1)OCOC(=O)C(C)(C)C.O=C(O)/C=C\C(=O)O [Example] has what CC50 at 8 days? 6.8
